All figures here come from PubChem BioAssay (NCI).

tested on: MCF7 breast; experiment: NCI-60 one-dose screen, 48 h; conditions: 10 µM unless noted
About 83,000 compounds went through this panel and 20% of them were active in at least one assay; those are over-represented in the sample as a whole. Calls of active or inactive are those of the source. The calls were made as follows: active = growth percent below 10; inactive = the rest.
# valid calls are active, inactive; nothing else

# count of solved cases: 4
COc1cc(/C=C2\C(=O)N(CCOc3cc(O)c4c(=O)cc(-c5ccccc5)oc4c3)c3ccccc32)cc(OC)c1O = inactive
CC(C)(C)n1cc(-c2ccnc(NCCNS(=O)(=O)c3cccc4ccccc34)c2)c(-c2cccc(O)c2)n1 = inactive
O=c1ccc2nc(-c3ccccc3)nn(-c3ccccn3)c-2c1 = active
O=C(/C=C/c1ccc(Cl)cc1)c1ccc(Nc2ccnc3cc(Cl)ccc23)cc1 = inactive

Hey, what did the test say about CCOC(=O)CCC(=O)P(=O)(O)O ? inactive

----------
system: HCC-2998 colon; assay: NCI-60 one-dose screen, 48 h (100 = growth as untreated, 0 = no growth, -100 = all killed); conditions: 10 µM unless noted
This is part of a sample that, as a whole, favours compounds with a hit. Of some 83,000 tested, about 20% had one in any assay.
REPORTED_METRIC: growth (%)
Respond numerically; units are % and should not be typed.

These solved cases illustrate the format of a correct answer.
C#CCOc1cc(/C=N/Nc2nc(-c3ccc(OC)cc3)cs2)ccc1O = 92.4
CCN(CC)CCCNC(=O)c1c2c(n3ccccc13)C(=O)c1ncccc1C2=O = -72.5
CS(=O)(=O)c1ccc(/C(=N/NC(N)=S)c2ccc(F)cc2)cc1 = 104

Please look at this molecule and report its growth: CN1/C(=C/C=C/c2n(Cc3ccc4ccccc4c3)c(Cl)c(Cl)[n+]2Cc2ccc3ccccc3c2)Oc2ccccc21 -87.6

Provide measured growth value, entry: CC1=C([Se]CC(OC(=O)[C@@H](CO)NC(=O)OC(C)(C)C)C(=O)NCCCCCC(=O)OCc2ccccc2)C(=O)c2ccccc2C1=O (some centres undefined) -92.5

Give the reported growth for this molecule. CC(C)(C)[C@H](OCc1cn([C@H]2C[C@@H](O)[C@@H](CO)O2)c(=O)[nH]c1=O)c1ccc(C#Cc2ccccc2)cc1[N+](=O)[O-] 87.1

----------
Form field: growth (one value per entry).
test system: MDA-MB-231 breast; assay: NCI-60 one-dose screen, 48 h (100 = growth as untreated, 0 = no growth, -100 = all killed); conditions: 10 µM unless noted
This is part of a sample that, as a whole, favours compounds with a hit. Of some 83,000 tested, about 20% had one in any assay.
State the answer as a number, implicitly in %.

Cc1cc2c(c(C)n1)CN(C(=O)Nc1nc(-c3cncs3)ccc1N)C2 = 113
O=C(/C=C/c1ccc(Cl)cc1)c1ccc(-n2cc(CN3CCN(c4cc5c(cc4F)c(=O)c(C(=O)O)cn5C4CC4)CC3)nn2)cc1 = 88.1

Please report growth with MDA-MB-231 breast for item COc1cccc(C(=O)Nc2cccc(NC(=O)c3ccccn3)c2)c1 . 105

Write down the reported growth (system: MDA-MB-231 breast) of Cc1ccc(-c2nnc(SCc3nc(N)nc(Nc4ccccc4F)n3)n2-c2ccccc2)cc1 91.9

Recall the reported growth of CCN=c1sc2c(n1NC(=O)c1cc3ccc1CCc1ccc(cc1)CC3)C(=O)c1ccccc1C2=O on MDA-MB-231 breast and write it down. -7.49

Specify growth for CN(C)CCOc1nc2c3cc([N+](=O)[O-])ccc3nn2c2ccccc12 , system MDA-MB-231 breast. 66.4

----------
test system: RPMI-8226 leukemia; assay: NCI-60 one-dose screen, 48 h (100 = growth as untreated, 0 = no growth, -100 = all killed); conditions: 10 µM unless noted
The panel holds about 83,000 compounds, 20% with a hit somewhere; the sample as a whole holds those more often.
REPORTED_METRIC: growth (%)
Quick note: give the figure in %, leave out the unit.

Worked examples follow.
CC(=O)CC(=O)c1ccccc1.[Cu+2] = 97.8
CCOC(=O)C1=C(c2ccccc2)N=C2SC=C(c3cccc([N+](=O)[O-])c3)N2C1c1ccc(O)cc1 (stereo not given) = 98
O=c1c(Cc2ccc(F)cc2)cc(-c2ccccc2)nn1C/C(=N/O)c1ccccc1 = 25.6
CCN1C(=O)N(CC)C2C1NC(=S)N2/N=C/C=C/c1ccccc1 (stereo not given) = -8.74
O=C(Nc1ncc(Cc2ccc(Cl)cc2)s1)c1ccc2c(c1)OCCO2 = 20
COc1ccc(S(=O)(=O)N(C)c2oc(-c3ccc(Cl)cc3)nc2C#N)cc1 = 69.7

// fetch growth for N#CC1=C(N)Oc2c(ccc3cccnc23)C1c1ccccc1 (stereo not given) ; system: RPMI-8226 leukemia 11.6

Please indicate recorded growth of O=c1ccc2nc(-c3ccccc3)nn(-c3ccccn3)c-2c1 measured with RPMI-8226 leukemia. 35.8

Supply growth measured with RPMI-8226 leukemia for O=C(NS(=O)(=O)c1ccccc1)n1cc(-c2ccncc2)c(-c2cc(O)cc(Cl)c2)n1 . 85.2

# return growth of CC(C)(C)[C@H](OCc1cn([C@H]2C[C@@H](O)[C@@H](CO)O2)c(=O)[nH]c1=O)c1ccc(C#Cc2ccccc2)cc1[N+](=O)[O-] (system: RPMI-8226 leukemia) 36.8

----------
tested on: NCI-H226 lung; test: NCI-60 one-dose screen, 48 h (100 = growth as untreated, 0 = no growth, -100 = all killed); conditions: 10 µM unless noted
About 83,000 compounds went through this panel and 20% of them were active in at least one assay; those are over-represented in the sample as a whole. Active and inactive are the calls of the source. The calls were made as follows: active = growth percent below 10; inactive = the rest.
REPORTED_METRIC: growth

Consider the following illustrative entries.
Clc1ccc(C2=Nn3c(nnc3-c3cc(Cl)cc(Cl)c3Cl)SC2)cc1 = 75.3% (inactive)
Cn1ccnc1C(=O)/C=C/c1ccc(C(=O)Nc2c(F)c(F)c(F)c(F)c2F)cc1 = 13% (inactive)
CSc1nc(N)c2c(n1)NC(c1ccccc1)C1CCc3ccccc3C1=N2 (centres undefined) = 77.6% (inactive)
CCCCC1=C(Br)C(=O)c2ncccc2C1=O = 97.8% (inactive)
CCCCN(CCC#N)C(N)=O = 103% (inactive)
Cc1[nH]c(C2CC(c3ccc(C(F)(F)F)c(F)c3)=NN2C)c(C)c1C(=O)NCC(F)(F)F (centres undefined) = 93.3% (inactive)
CCn1c2ccccc2c2cc(C(O)c3cccc4ncccc34)ccc21 (centres undefined) = 23.7% (inactive)
Cn1cc(-c2nc(-c3c[nH]c4c(Cl)nccc34)cs2)c2ccccc21 = 103% (inactive)
Nc1ncc(-c2ccc3ncnc(N4CCc5cc(F)c(Cl)cc54)c3c2)cc1C(F)(F)F = 28.3% (inactive)
CCN(CC)CCCNC(=O)c1c2c(n3ccccc13)C(=O)c1ncccc1C2=O = -34.9% (active)

Annotate the compound CC(=O)c1c(/C=C/c2ccc(C)cc2)c2ccccc2[nH]c1=O with its measured growth. 63% (inactive)

Tell us which growth value is on record for COc1ccc(-c2ccc(-c3ccc(C(=N)N)o3)o2)cc1 78.2% (inactive)

Assign growth to the following record: CC1OC(C(=O)N2CCN(CCO)CC2)CC1COC1CCCCC1 (centres undefined) 84.3% [50 µM] (inactive)

Quickly give me recorded growth for CCCCCCCCCCCCCC[n+]1ccc2c(C)c3c(c(C)c2c1)c1cc(O)ccc1n3CC -40.5% (active)

Tell me growth reported for COc1cc(/C=C/C(=O)c2ccc(-n3cc(CN4CCN(c5cc6c(cc5F)c(=O)c(C(=O)O)cn6C5CC5)CC4)nn3)cc2)cc(OC)c1OC 74.8% (inactive)

Answer with the recorded growth of Cn1cc(-c2csc(-c3cn(C)c4ccc(F)cc34)n2)c2cnccc21 only. 68.5% (inactive)

Please report the measured growth for O=C(NC1CCCCCC1)c1ccc2c(=O)n3c(nc2c1)CCCCC3 106% (inactive)

----------
system: SK-MEL-28 melanoma; assay: NCI-60 one-dose screen, 48 h (100 = growth as untreated, 0 = no growth, -100 = all killed); settings: 10 µM unless noted
About 83,000 compounds went through this panel and 20% of them were active in at least one assay; those are over-represented in the sample as a whole.
Mark TRUE for reported growth of 60% or greater; mark FALSE for anything smaller.

Reference set (5 entries):
Oc1ccc(Cc2ccc(O)c3ncccc23)c2cccnc12 = FALSE
Cc1c2cnccc2c(C)c2c1c1cc(C(=O)O)ccc1n2C = FALSE
O=C(/C=C/c1ccco1)c1ccc(Nc2ccnc3cc(Cl)ccc23)cc1 = TRUE
COc1ccc(/C=N\NC(=O)c2ccc3nc(-c4ccc(Cl)cc4)[nH]c3c2)cc1 = FALSE
C(=N\Nc1nnc2n1N=C(c1ccccc1)CS2)/c1ccc(OCc2ccccc2)cc1 = TRUE

Given the entry Cc1cc([N+](=O)[O-])ccc1NC(=O)c1ccc2c(c1)nc(-c1ccccc1)n2C1CCCCC1 , answer whether its growth meets or surpasses 60%. TRUE

Exam item: decide whether the reported growth for COc1cc(C)cc(-c2c(-c3cc(N4CC(O)C4)nc(-c4cccnc4)n3)cnn2C)c1 is at least 60%. TRUE

Would you say CCCCCC(C)(O)C(C(=O)O)c1ccccc1 (stereo not given) shows growth at minimum 60%? TRUE

Does the reported growth for COc1ccc(/C=C/C(=O)c2ccc(-n3cc(CN4CCN(c5cc6c(cc5F)c(=O)c(C(=O)O)cn6C5CC5)CC4)nn3)cc2)cc1 fall at or above the 60% mark? TRUE
